protocol-notes: Phase I drug-drug interaction PK, Group 3: THC/CBD spray alone or with omeprazole, plasma by GC-MS
condition-set: male, human, plasma, oral, 40 mg
result-type: Cmax (ng/mL)
// units = ng/mL; emit number, no label

Q: # lookup: Cmax of C=C(C)[C@@H]1CCC(C)=C[C@H]1c1c(O)cc(CCCCC)cc1O
A: 0.73

* * *

protocol-notes: Phase I drug-drug interaction PK, Group 2: THC/CBD spray alone or with ketoconazole, plasma by GC-MS
condition-set: male, human, plasma, oral
Protocol: Subjects received rifampicin on Days 1-9. […] Subjects received ketoconazole on Days 1-4. Blood samples were collected at specified times and stored on ice (except rifampicin PK samples which were stored in iced water) prior to processing and storage. Plasma samples were separated by centrifugation (approximately 2500 rpm × 15 minutes at 4°C). Samples were stored in 4 mL amber glass screw top glass vials with PTFE lined screw caps labelled with Guys Drug Research (Quintiles Limited) labels. […]
result-type: AUC(0-t) (ng·h/mL)
// units = ng·h/mL; emit number, no label

Q: # lookup: AUC(0-t) of C=C(C)[C@@H]1CCC(C)=C[C@H]1c1c(O)cc(CCCCC)cc1O
A: 4.83

* * *

protocol-notes: Phase I drug-drug interaction PK, Group 3: THC/CBD spray alone or with omeprazole, plasma by GC-MS
condition-set: male, human, plasma, oral, 40 mg
result-type: AUC(0-t) (ng·h/mL)
// units = ng·h/mL; emit number, no label

Q: # lookup: AUC(0-t) of C=C(C)[C@@H]1CCC(C)=C[C@H]1c1c(O)cc(CCCCC)cc1O
A: 2.25

* * *

protocol-notes: Phase I drug-drug interaction PK, Group 1: THC/CBD spray alone or with rifampicin, plasma by GC-MS
condition-set: male, human, plasma
result-type: Cmax (ng/mL)
// units = ng/mL; emit number, no label

Q: # lookup: Cmax of C=C(C)[C@@H]1CCC(C)=C[C@H]1c1c(O)cc(CCCCC)cc1O [CBD, cannabidiol]
A: 0.5

* * *

protocol-notes: Phase I drug-drug interaction PK, Group 1: THC/CBD spray alone or with rifampicin, plasma by GC-MS
condition-set: male, human, plasma
result-type: AUC(0-inf) (ng·h/mL)
// units = ng·h/mL; emit number, no label

Q: # lookup: AUC(0-inf) of C=C(C)[C@@H]1CCC(C)=C[C@H]1c1c(O)cc(CCCCC)cc1O
A: 2.15

* * *

protocol-notes: Phase I drug-drug interaction PK, Group 3: THC/CBD spray alone or with omeprazole, plasma by GC-MS
condition-set: male, human, plasma, oral, 40 mg
result-type: k el

Q: # lookup: k el of C=C(C)[C@@H]1CCC(C)=C[C@H]1c1c(O)cc(CCCCC)cc1O
A: 5.83e-05 s⁻¹

* * *

protocol-notes: Phase I drug-drug interaction PK, Group 1: THC/CBD spray alone or with rifampicin, plasma by GC-MS
condition-set: male, human, plasma
result-type: Tmax (h)
// units = h; emit number, no label

Q: # lookup: Tmax of C=C(C)[C@@H]1CCC(C)=C[C@H]1c1c(O)cc(CCCCC)cc1O
A: 1.5

* * *

protocol-notes: Phase I drug-drug interaction PK, Group 1: THC/CBD spray alone or with rifampicin, plasma by GC-MS
condition-set: male, human, plasma, oral
result-type: Tmax (h)
// units = h; emit number, no label

Q: # lookup: Tmax of C=C(C)[C@@H]1CCC(C)=C[C@H]1c1c(O)cc(CCCCC)cc1O [CBD, cannabidiol]
A: 1

* * *

protocol-notes: Phase I drug-drug interaction PK, Group 3: THC/CBD spray alone or with omeprazole, plasma by GC-MS
condition-set: male, human, plasma, oral
result-type: Tmax (h)
// units = h; emit number, no label

Q: # lookup: Tmax of C=C(C)[C@@H]1CCC(C)=C[C@H]1c1c(O)cc(CCCCC)cc1O
A: 1.15

* * *

protocol-notes: Phase I drug-drug interaction PK, Group 2: THC/CBD spray alone or with ketoconazole, plasma by GC-MS
condition-set: male, human, plasma, oral
result-type: Cmax (ng/mL)
// units = ng/mL; emit number, no label

Q: # lookup: Cmax of C=C(C)[C@@H]1CCC(C)=C[C@H]1c1c(O)cc(CCCCC)cc1O [CBD, cannabidiol]
A: 1.25

* * *

protocol-notes: Phase I drug-drug interaction PK, Group 2: THC/CBD spray alone or with ketoconazole, plasma by GC-MS
condition-set: male, human, plasma, oral
result-type: AUC(0-inf)

Q: # lookup: AUC(0-inf) of C=C(C)[C@@H]1CCC(C)=C[C@H]1c1c(O)cc(CCCCC)cc1O [CBD, cannabidiol]
A: 6.5 ng·h/mL

* * *

protocol-notes: Phase I drug-drug interaction PK, Group 3: THC/CBD spray alone or with omeprazole, plasma by GC-MS
condition-set: male, human, plasma, oral
result-type: half-life (h)
// units = h; emit number, no label

Q: # lookup: half-life of C=C(C)[C@@H]1CCC(C)=C[C@H]1c1c(O)cc(CCCCC)cc1O
A: 5.22

* * *

protocol-notes: Phase I drug-drug interaction PK, Group 1: THC/CBD spray alone or with rifampicin, plasma by GC-MS
Parameters: dose or concentration left out as unconfirmed
condition-set: male, human, plasma
result-type: half-life (h)
// units = h; emit number, no label

Q: # lookup: half-life of C=C(C)[C@@H]1CCC(C)=C[C@H]1c1c(O)cc(CCCCC)cc1O
A: 4.13

* * *

protocol-notes: Phase I drug-drug interaction PK, Group 1: THC/CBD spray alone or with rifampicin, plasma by GC-MS
condition-set: male, human, plasma, oral
result-type: half-life (h)
// units = h; emit number, no label

Q: # lookup: half-life of C=C(C)[C@@H]1CCC(C)=C[C@H]1c1c(O)cc(CCCCC)cc1O [CBD, cannabidiol]
A: 10.9

* * *

protocol-notes: Phase I drug-drug interaction PK, Group 1: THC/CBD spray alone or with rifampicin, plasma by GC-MS
Parameters: dose or concentration left out as unconfirmed
condition-set: male, human, plasma
result-type: k el
Please answer in the form of a number followed by its unit of measurement.

Q: # lookup: k el of C=C(C)[C@@H]1CCC(C)=C[C@H]1c1c(O)cc(CCCCC)cc1O
A: 5.44e-05 s⁻¹
